measured-target: human Siglec-7 on primary human monocyte-derived dendritic cells (human, UniProt Q9Y286 19-467)
Sequence (Q9Y286 19-467): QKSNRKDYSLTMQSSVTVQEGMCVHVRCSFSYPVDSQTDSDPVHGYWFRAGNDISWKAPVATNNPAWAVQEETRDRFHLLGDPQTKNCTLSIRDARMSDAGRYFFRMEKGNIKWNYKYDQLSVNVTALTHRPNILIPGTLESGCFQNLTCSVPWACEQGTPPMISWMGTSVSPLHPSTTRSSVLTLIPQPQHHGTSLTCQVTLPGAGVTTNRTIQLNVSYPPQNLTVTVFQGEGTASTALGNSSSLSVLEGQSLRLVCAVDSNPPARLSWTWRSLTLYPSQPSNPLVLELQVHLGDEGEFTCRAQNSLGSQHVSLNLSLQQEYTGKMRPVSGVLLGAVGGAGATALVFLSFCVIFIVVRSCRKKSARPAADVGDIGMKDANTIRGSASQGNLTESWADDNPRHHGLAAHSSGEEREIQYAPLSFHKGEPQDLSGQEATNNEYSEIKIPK
assay-name: cell-based or functional assay
A collection of binders and their measured Receptor downregulation, (EC50) (pM)
Numeric answer only, unit pM assumed.

Example binders with recorded Receptor downregulation, (EC50) (pM):
In: What value of Receptor downregulation, (EC50) (pM) has been reported for the following binder? S7AB-H8.5 (antibody, V domains shown) VH: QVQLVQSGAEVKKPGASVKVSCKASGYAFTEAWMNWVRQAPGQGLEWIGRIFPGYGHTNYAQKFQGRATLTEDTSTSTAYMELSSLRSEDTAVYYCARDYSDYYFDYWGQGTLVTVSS VL: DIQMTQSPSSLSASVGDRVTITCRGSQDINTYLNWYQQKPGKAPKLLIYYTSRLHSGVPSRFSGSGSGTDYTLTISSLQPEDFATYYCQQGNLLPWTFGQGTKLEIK
Out: 87

In: One more binder: S7AB-H8.45.1 (antibody, V domains shown) VH: QVQLVQSGAEVKKPGASVKVSCKASGYAFTEAWMNWVRQAPGQRLEWIGRIFPGYGHTNYAQKFQGRATLTEDTSTSTAYMELSSLRSEDTAVYYCARDYSDYYFDYWGQGTLVTVSS VL: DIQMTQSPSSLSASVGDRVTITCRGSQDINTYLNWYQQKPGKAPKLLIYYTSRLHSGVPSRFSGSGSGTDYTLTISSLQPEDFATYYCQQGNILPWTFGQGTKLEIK
Out: 97

In: Now give it for S7AB-H8.19 (antibody, V domains shown) VH: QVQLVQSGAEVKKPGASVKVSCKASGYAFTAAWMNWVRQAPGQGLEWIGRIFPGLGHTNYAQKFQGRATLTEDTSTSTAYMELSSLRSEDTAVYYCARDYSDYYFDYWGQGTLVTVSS VL: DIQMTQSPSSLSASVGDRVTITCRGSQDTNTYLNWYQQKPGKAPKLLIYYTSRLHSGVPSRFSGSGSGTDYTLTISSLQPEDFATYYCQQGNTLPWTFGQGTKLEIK too.
Out: 97.8

In: Record: S7AB-H8.1 (antibody, V domains shown) VH: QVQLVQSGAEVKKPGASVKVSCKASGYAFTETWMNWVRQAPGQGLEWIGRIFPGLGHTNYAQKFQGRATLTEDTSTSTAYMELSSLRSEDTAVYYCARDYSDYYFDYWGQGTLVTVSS VL: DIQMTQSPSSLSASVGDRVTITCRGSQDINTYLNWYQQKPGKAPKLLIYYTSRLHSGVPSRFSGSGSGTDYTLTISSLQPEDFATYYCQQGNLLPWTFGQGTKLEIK
Out: 117

Next:
In: For the binder shown here, S7AB-H8.43 (antibody, V domains shown, also called S7AB-H.43) VH: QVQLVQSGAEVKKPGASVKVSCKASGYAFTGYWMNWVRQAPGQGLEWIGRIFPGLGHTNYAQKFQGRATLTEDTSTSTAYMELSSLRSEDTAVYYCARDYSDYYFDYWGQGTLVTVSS VL: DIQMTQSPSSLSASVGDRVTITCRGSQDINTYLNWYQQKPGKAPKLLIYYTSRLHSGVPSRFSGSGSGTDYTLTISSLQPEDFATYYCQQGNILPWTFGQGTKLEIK , give the reported Receptor downregulation, (EC50) (pM).
Out: 33.2
